Hey, just so you know, these numbers are from patent USRE46604E1.

- test-summary: Effect of smoking on pharmacokinetics
- Format: in vivo, human
- test-context: human, in vivo, Smokers (10 or more cigarettes per day); read-out: Vz/F
- From the text: Smokers were defined as those smoking 10 or more cigarettes per day. Non-smokers were defined as those smoking no cigarettes per day.
assay-metric: Vd/F (L)
Answers are plain numbers, in L.

Q) Specify reported Vd/F for the compound shown: CCC(=O)NC[C@@H]1C[C@H]1c1cccc2c1CCO2 (relative stereo)
A) 189

----------
- test-summary: Effect of smoking on pharmacokinetics
- Assay type: in vivo, human
- test-context: human, in vivo, Smokers (10 or more cigarettes per day)
- Description: Smokers were defined as those smoking 10 or more cigarettes per day. Non-smokers were defined as those smoking no cigarettes per day.
assay-metric: Cmax (ng/mL)
One number for each entry, in ng/mL.

Q) For the molecule CCC(=O)NC[C@@H]1C[C@H]1c1cccc2c1CCO2 (relative stereo) , report Cmax.
A) 136

----------
- test-summary: Effect of smoking on pharmacokinetics
- Type: in vivo, human
- test-context: human, in vivo, Smokers (10 or more cigarettes per day)
assay-metric: AUC(0-inf) (ng·h/mL)
Numbers only, in ng·h/mL.

Q) Please look at this molecule and report its AUC(0-inf): CCC(=O)NC[C@@H]1C[C@H]1c1cccc2c1CCO2 (relative stereo) [Tasimelteon]
A) 205

----------
- test-summary: Effect of smoking on pharmacokinetics
- Format: in vivo, human
- test-context: human, in vivo, Non-Smokers
assay-metric: Cmax (ng/mL)
Numbers only, in ng/mL.

Q) Look up and state reported Cmax for CCC(=O)NC[C@@H]1C[C@H]1c1cccc2c1CCO2 (relative stereo) [Tasimelteon]
A) 239

----------
- test-summary: Effect of smoking on pharmacokinetics
- Type: in vivo, human
- test-context: human, in vivo, Smokers (10 or more cigarettes per day); read-out: Tmax
assay-metric: Tmax (min)
Give bare numbers, in min.

Q) Retrieve Tmax measured for CCC(=O)NC[C@@H]1C[C@H]1c1cccc2c1CCO2 (relative stereo) [Tasimelteon] and print it.
A) 45

----------
- test-summary: Effect of smoking on pharmacokinetics
- Format: in vivo, human
- test-context: human, in vivo, Non-Smokers; read-out: Tmax
assay-metric: Tmax (min)
Numbers only, in min.

Q) Give Tmax for CCC(=O)NC[C@@H]1C[C@H]1c1cccc2c1CCO2 (relative stereo)
A) 30
